# Assay summary: chemical genetic growth profiling, strain panel (AID 1159580);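 also: tested at 20 µM; growth read once vehicle control cultures reached saturation at 30 °C; 1 = growth at the plate median or of vehicle wells; lower values mean less growth of the strain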
# Condition label: S. cerevisiae deletion strains, growth OD, locus YNL209W, strain ssb2, active compounds read low
About 2,000 (36%) of roughly 5,500 compounds were called active. Not shown: some 18% with an inconclusive outcome. The list shows a part of the results.

{"Compound": "Cn1cc[nH]c1=S", "normalized growth": 0.979}
{"Compound": "C=CCc1ccc2c(c1)OCO2", "normalized growth": 1.02}
{"Compound": "CCc1ccc(CCOc2ccc(CC3SC(=O)NC3=O)cc2)nc1 (configuration not stated)", "normalized growth": 0.997}
{"Compound": "OCCN(CCO)c1nc(N2CCCCC2)c2nc(N(CCO)CCO)nc(N3CCCCC3)c2n1", "normalized growth": 0.993}
{"Compound": "COc1ccc(C(=O)c2ccccc2)c(O)c1", "normalized growth": 0.906}
{"Compound": "CC(=O)CC(=O)CCC(=O)O", "normalized growth": 1.02}
{"Compound": "Cc1cc(OC(=O)N2CCCCC2)c(C(C)C)cc1[N+](C)(C)C", "normalized growth": 1}
{"Compound": "OCc1ccccc1O[C@@H]1O[C@H](CO)[C@@H](O)[C@H](O)[C@H]1O", "normalized growth": 0.974}
{"Compound": "COc1ccc(C(=O)c2ccccc2O)c(O)c1", "normalized growth": 0.913}
{"Compound": "CC1(C)C2CC[C@]3(C)C(C(=O)C=C4[C@H]5C[C@@](C)(C(=O)O)CC[C@]5(C)CC[C@]43C)[C@@]2(C)CC[C@@H]1O (some centres not stated)", "normalized growth": 0.971}
{"Compound": "c1ccc(CC2=NCCN2)cc1", "normalized growth": 1.02}
{"Compound": "CCOC(=O)c1ncn2c1CN(C)C(=O)c1cc(F)ccc1-2", "normalized growth": 1.02}
{"Compound": "C/C=C(/C(=C/C)c1ccc(O)cc1)c1ccc(O)cc1", "normalized growth": 1}
{"Compound": "C=C1CC[C@H](O)C/C1=C/C=C1\\CCC[C@]2(C)C([C@H](C)/C=C/[C@H](C)C(C)C)CC[C@@H]12 (some centres not stated)", "normalized growth": 1.01}
{"Compound": "C=CC1=C(C(=O)O)N2C(=O)[C@@H](NC(=O)/C(=N/O)c3csc(N)n3)[C@H]2SC1", "normalized growth": 1.01}
{"Compound": "COc1cc(O)c(C(=O)c2ccccc2)cc1O", "normalized growth": 0.947}
{"Compound": "CC1(C)C2CC[C@]3(C)C(C(=O)C=C4[C@@H]5C[C@@](C)(C(=O)O)CC[C@]5(C)CC[C@]43C)[C@@]2(C)CC[C@@H]1OC(=O)CCC(=O)O (some centres not stated)", "normalized growth": 0.967}
{"Compound": "CCCCOc1ccc(CC(=O)NO)cc1", "normalized growth": 1.01}
{"Compound": "CC(C)(C)CC(C)(C)c1ccc(OCCOCC[N+](C)(C)Cc2ccccc2)cc1", "normalized growth": 0.0644}
{"Compound": "Cc1c(N(C)C)c(=O)n(-c2ccccc2)n1C", "normalized growth": 1.01}
{"Compound": "COC(=O)[C@@H]1C(O)CC[C@H]2CN3CCc4c([nH]c5ccccc45)[C@@H]3C[C@@H]21 (some centres not stated)", "normalized growth": 1.01}
{"Compound": "O=C(Cc1ccccc1)NO", "normalized growth": 0.984}
